- measurement-protocol: Half life in CD-1 mouse at 5 mg/kg, po administered as single dose measured upto 24 hrs by LC-MS/MS analysis
- Format: ADME, organism-based
- experimental-parameters: in vivo
Would you mind telling me the reported half-life of each entry?

Below, each entry is followed by its recorded half-life result.
1. O=P([O-])(OC1=Cc2ccccc2Sc2ccccc21)OC1=Cc2ccccc2Sc2ccccc21.[Na+] = 1.62 h
2. O=P([O-])(OC1=Cc2c(Cl)cccc2Sc2ccccc21)OC1=Cc2c(Cl)cccc2Sc2ccccc21.[Na+] = 4.39 h
3. COc1cccc2c1Sc1ccccc1C=C2OP(=O)([O-])OC1=Cc2ccccc2Sc2c(OC)cccc21.[Na+] = 4.99 h

Lab note: next compound to report on.
Entry under review: COc1cccc2c1Sc1cccc(F)c1C=C2OP(=O)([O-])OC1=Cc2c(F)cccc2Sc2c(OC)cccc21.[Na+] . Reported half-life?
1.91 h
